Numbers sourced from PubChem BioAssay (NCI).

System: HCT-116 colon
Test: NCI-60 one-dose screen, 48 h (100 = growth as untreated, 0 = no growth, -100 = all killed)
Details: 10 µM unless noted
This is part of a sample that, as a whole, favours compounds with a hit. Of some 83,000 tested, about 20% had one in any assay. Active and inactive are the calls of the source. The calls were made as follows: active = growth percent below 10; inactive = the rest.
Readout Type: growth

O=C(O)c1cn(C2CC2)c2cc(N3CCN(C(=O)N(c4ccccc4)c4nc(-c5ccccc5)cs4)CC3)c(F)cc2c1=O	5.04% (active)
O=C(C[C@]1(O)C(=O)Nc2ccccc21)c1cccc(C(F)(F)F)c1	95.5% (inactive)

Asked: Looking for the measured growth of COc1ccc(C2=Nc3c(N)nc(N)nc3NC(c3cccc(Nc4ccnc5cc(C(F)(F)F)ccc45)c3)C2)cc1 (configuration not stated) , can you help?
Given back: 37.9% (inactive)

Asked: Entry `Nc1nc(-c2ccc(Cl)cc2)nc2c1sc(=S)n2-c1ccccc1` please
Given back: 20.1% (inactive)

Asked: Entry Cc1ccc(C2=Nc3c(N)ncnc3NC(c3cccc(Nc4ccnc5cc(C(F)(F)F)ccc45)c3)C2)cc1 (configuration not stated) please
Given back: 12.6% (inactive)

Asked: Entry COc1ccc(C2CC(c3ccc(Nc4nc(Nc5ccccc5)nc(Nc5ccccc5)n4)cc3)=NN2C(C)=O)cc1 (configuration not stated) please
Given back: 96.5% (inactive)

Asked: Entry `CCOc1ccc(NC(=O)CSc2oc(-c3ccccc3)nc2S(=O)(=O)c2ccc(C)cc2)cc1` please
Given back: 23.8% (inactive)

---

# key: entry, value: growth
System: NCI-H322M lung
Experiment: NCI-60 one-dose screen, 48 h (100 = growth as untreated, 0 = no growth, -100 = all killed)
Conditions: 10 µM unless noted
About 83,000 compounds went through this panel and 20% of them were active in at least one assay; those are over-represented in the sample as a whole.
Give a bare numeral; the unit % is implied.

# count of solved cases: 4
CCCCCCCCCCCCCCCCCCOc1ccccc1CC(=O)OCC[N+](C)(C)C	66.5
COc1ccc(Nc2ncc(Br)c(NCCCNC(=O)C3CCCC3)n2)cc1	58.5
O=C(CSc1oc(-c2ccccc2)nc1S(=O)(=O)c1ccccc1)Nc1ccc(F)cc1	76.9
CCCCNC(=O)CC1=C(C)/C(=C/c2[nH]c(-c3ccc[nH]3)cc2OC)N=C1C	50

Asked: Looking for the measured growth of `CS(=O)(=O)c1ccc(-c2cnn3ccc(-c4cccc(S(=O)(=O)C5CC5)c4)nc23)cc1` , can you help?
Given back: 57.9

---

# key: entry, value: growth
Test system: SW-620 colon
Assay: NCI-60 one-dose screen, 48 h (100 = growth as untreated, 0 = no growth, -100 = all killed)
Conditions: 10 µM unless noted
About 83,000 compounds went through this panel and 20% of them were active in at least one assay; those are over-represented in the sample as a whole.
Give a bare numeral; the unit % is implied.

CCOCCNC1=C(Cl)C(=O)c2ccccc2C1=O	110

In the following, a different compound is considered.
Asked: Looking for the measured growth of `CCCCNC(=O)Oc1ccc(/C(=C(/C)Cc2ccc(OC)cc2)c2ccc(OCCN3CCCC3)cc2)cc1` , can you help?
Given back: 72.7

---

Tested on: OVCAR-5 ovarian
Assay: NCI-60 one-dose screen, 48 h
Details: 10 µM unless noted
Compounds without any hit were thinned out: in the full panel of roughly 83,000, 20% have a hit. The source made the active and inactive calls. How the source made its calls: active means growth percent below 10; inactive means the rest.
Please state which outcome applies, choosing from Yes for active, No for inactive

CCOC(=O)c1c(NC(=O)c2ccc(Cl)cc2)sc2c(CN(C)C)c(O)ccc12	No
COc1ccc2c(c1)c(-c1nc(-c3c[nH]c4ccncc34)cs1)cn2C	Yes
COc1cc2ncnc(Nc3ccc(S(=O)(=O)Nc4cc(C)on4)cc3)c2cc1OCCCN1CCN(c2ccc(F)cc2)CC1	No
COc1cc2c(c(OC)c1OC)CCC(c1cccc(C(=O)Nc3ccc(C#N)cc3)c1)O2 (stereo not given)	No

Asked: Call for entry `O=C1/C(=C/c2ccc([N+](=O)[O-])cc2)COc2ccc(O)cc21` :
Given back: No

Asked: Entry `CSc1nnc(-c2cc3c([nH]c4ccccc43)c(-c3cccc(O)c3)n2)n1-c1ccccc1` please
Given back: No

Asked: Entry C1CCC([PH+](C2CCCCC2)C2CCCCC2[PH+](C2CCCCC2)C2CCCCC2)CC1.[Au].[CH-]1CCCCC1C1CCCC[N-]1 (stereo not given) please
Given back: Yes

Asked: Entry `O=S(=O)(Nc1cc(F)cc(Cl)c1)c1ccc(-c2cnc(C3CC3)o2)cc1` please
Given back: No

Asked: Entry `CCn1c(SCC(=O)N/N=C(\C)c2ccc(Cl)cc2)nc2c1c(=O)n(C)c(=O)n2C` please
Given back: No

Asked: Entry `CCCCCCCCCCCCCCCCCCOc1ccccc1CC(=O)OCC[N+](C)(C)C` please
Given back: No

---

Test system: OVCAR-8 ovarian
Test: NCI-60 one-dose screen, 48 h (100 = growth as untreated, 0 = no growth, -100 = all killed)
Details: 10 µM unless noted
This is part of a sample that, as a whole, favours compounds with a hit. Of some 83,000 tested, about 20% had one in any assay. The source made the active and inactive calls. The calls were made as follows: active = growth percent below 10; inactive = the rest.
Readout Type: growth

# count of solved cases: 6
CCOC(=O)c1nn(-c2ccc(S(N)(=O)=O)cc2)c2nc(C)cc(=O)n12	105% (inactive)
COc1ccc(-c2cc(-c3cc(OC)c(OC)c(OC)c3)c(C#N)c(=O)n2CCCCC(=O)NO)cc1	42.4% (inactive)
CCOC(=O)n1cc(-c2nonc2-c2cn(C(=O)OCC)c3ccc(Br)cc23)c2ccccc21	85.6% (inactive)
O=C1/C(=C\c2ccc3nccnc3c2)SC(=S)N1CCc1ccc(O)cc1	98.4% (inactive)
COc1ccc(/C=N/C2=C(C#N)C(c3ccccc3)c3ccc4ccccc4c3O2)cc1 (stereo not drawn)	14.1% (inactive)
CN1CCN(C(=O)c2ccc(NC(=O)c3cc4c(nn3)NCCN4Cc3cc(Cl)ccc3Cl)cc2)CC1	91.1% (inactive)

Asked: Looking for the measured growth of C[PH+](c1nc2ccccc2nc1[PH+](C)C(C)(C)C)C(C)(C)C.C[PH+](c1nc2ccccc2nc1[PH+](C)C(C)(C)C)C(C)(C)C.[Au+].[Cl-] (stereo not drawn) , can you help?
Given back: -54.3% (active)

Asked: Entry CCCCCCC12CCC(=O)N1CCc1cncn12 (stereo not drawn) please
Given back: 101% (inactive)

Asked: Entry `CCNCCNc1cc(C2CCCCC2)c(C#N)c2nc3ccccc3n12` please
Given back: 26.2% (inactive)

Asked: Entry `CCCCNC(=O)Oc1ccc(/C(=C(/C)Cc2ccc(OC)cc2)c2ccc(OCCN3CCCC3)cc2)cc1` please
Given back: 69.6% (inactive)

Asked: Entry `O=C(CSc1nc2ccc([N+](=O)[O-])cc2[nH]1)Nc1ccc([N+](=O)[O-])cc1` please
Given back: 14.4% (inactive)

---

Test system: NCI-H322M lung
Assay: NCI-60 one-dose screen, 48 h
Conditions: 10 µM unless noted
This is part of a sample that, as a whole, favours compounds with a hit. Of some 83,000 tested, about 20% had one in any assay. Active and inactive are the calls of the source. How the source made its calls: active means growth percent below 10; inactive means the rest.
Please state which outcome applies, choosing from active, inactive

Use these answered entries as a reference point.
CN(C)Cc1ccc(O)c(C(=O)O)c1	inactive
CN1C(=O)/C(=C\c2nc([P+](c3ccccc3)(c3ccccc3)c3ccccc3)c(N3CCOCC3)o2)SC1=S	inactive
CN(C)CC1CCC(CN(C)C)C1=O (stereo unspecified)	inactive
CCC(C)(C)C(=O)O[C@H]1C[C@@H](C)C=C2C=C[C@H](C)[C@H](CC[C@@H]3CC(SCCN)CC(=O)O3)[C@H]21 (stereo partly specified)	inactive
COc1ccc(Cc2cnc(NC(=O)c3cc(C)oc3C)s2)cc1	inactive

// switching to the query compound
Asked: Call for entry `N=C(N)c1ccc(-c2ccc(-c3ccccc3)o2)cc1` :
Given back: active

---

System: UACC-257 melanoma
Assay: NCI-60 one-dose screen, 48 h (100 = growth as untreated, 0 = no growth, -100 = all killed)
Conditions: 10 µM unless noted
About 83,000 compounds went through this panel and 20% of them were active in at least one assay; those are over-represented in the sample as a whole.
Readout Type: growth (%)
Give a bare numeral; the unit % is implied.

# count of solved cases: 5
Cc1ccc(C2=Nc3c(N)ncnc3NC(c3cccc(Nc4ccnc5cc(C(F)(F)F)ccc45)c3)C2)cc1 (centres undefined)	51.7
Oc1c(I)cc(I)cc1CNCCN(Cc1ccccn1)Cc1ccccn1	-58.7
CCCCn1c(=O)[nH]c(N)c([C@@H]2c3c([nH]c(=O)n(CCCC)c3=O)Oc3ccc4ccccc4c32)c1=O	93
CCN(CC)S(=O)(=O)c1ccc(S(=O)(=O)N2CCC[C@@H](C(=O)N3CCN(c4nc(C(C)C)no4)CC3)C2)cc1	45.1
N#Cc1c(-c2ccc(Cl)cc2)nc(NN2C(=O)c3ccccc3C2=O)nc1N1CCOCC1	108

Asked: Looking for the measured growth of `COc1cccc(CNc2ccc3ncnc(Nc4ccc(F)c(Cl)c4)c3c2)c1` , can you help?
Given back: 49.2
